- Test system: protein kinase C (PKC)
- PROCEDURE_TEXT: PKC kinase inhibition (Upstate test kit)
- Assay type: biochemical
- CONDITION_INFO: substance concentration 100 μM; ATP 50 μM
Please use satisfied whenever PKC % inhibition is not below 20%, and not satisfied whenever it is.

Some entries whose results are on file:
1) O=C(N[C@@H](CSc1ccccc1)C(=O)O)c1ccc2[nH]c(-c3ccncc3)cc2c1: satisfied
2) NC(=O)[C@H](CSc1ccccc1)NC(=O)c1ccc2[nH]c(-c3ccncc3)cc2c1 (stereo in doubt): satisfied
3) Cc1c(-c2ccncc2)[nH]c2ccc(C(=O)N[C@@H](CSc3ccccc3)C(N)=O)cc12: satisfied
4) Cc1c(-c2ccncc2)[nH]c2ccc(C(=O)N[C@@H](CSc3ccccc3)C(=O)O)cc12: not satisfied

Prompt line: Say whether CCN(C[C@H](NC(=O)c1ccc2[nH]c(-c3ccncc3)cc2c1)C(N)=O)c1ccccc1 shows PKC % inhibition of 20% or more.
Response line: satisfied

Prompt line: Hello, I need to know if NC(=O)[C@H](CCc1ccccc1)NC(=O)c1ccc2[nH]c(-c3ccncc3)cc2c1 has measured PKC % inhibition not below 20%. Thanks!
Response line: not satisfied
